# assay.overview: Protein binding to human plasma proteins by equilibrium dialysis
# Type: in vitro ADME
# condition.context: pH 7.4, equilibrium dialysis 6 h, 37° C.
property: fraction unbound at 6 h, 2000 ng/mL

compound: C[C@@H](Oc1cc(-n2cnc3ccc(CN4CCN(C)CC4)cc32)sc1C(N)=O)c1ccccc1C(F)(F)F [Example 1]
test.result: > 0.05

----------
# Tested on: MCF7
# assay.overview: Methylene blue growth inhibition assay
# Assay type: cell-based
# condition.context: Homo sapiens, 72 h
property: IC50

molecule: C[C@@H](Oc1cc(-n2cnc3ccc(CN4CCN(C)CC4)cc32)sc1C(N)=O)c1ccccc1C(F)(F)F [Example 1]
property: IC50
test.result: < 100 nM
